Classification field: enter Criterion met for melting point values not below 200 °C, Criterion not met for values below it.

Example results:
Prompt line: For this molecule, is measured melting point 200 °C or higher? CCOC(=O)c1ncnc2c1Cc1cncn1-c1cc(Br)ccc1-2
Response line: Criterion met

Prompt line: For this molecule, is measured melting point 200 °C or higher? CCOC(=O)c1ncnc2c1Cc1cnc(Cc3c[nH]c4ccccc34)n1-c1ccccc1-2
Response line: Criterion not met

Prompt line: For this molecule, is measured melting point 200 °C or higher? CCOC(=O)c1ncnc2c1Cc1cnc(Cc3c[nH]c4ccccc34)n1-c1cc(F)ccc1-2
Response line: Criterion met

Prompt line: For this molecule, is measured melting point 200 °C or higher? CCCc1ncc2n1-c1cc(C)ccc1-c1ncnc(C(=O)OCC)c1C2
Response line: Criterion met

Prompt line: For this molecule, is measured melting point 200 °C or higher? CCOC(=O)c1ncnc2c1Cc1cnc(C(C)(C)C)n1-c1ccccc1-2
Response line: Criterion met

Prompt line: For this molecule, is measured melting point 200 °C or higher? CCOC(=O)c1ncnc2c1Cc1cnc(Cc3c[nH]c4ccccc34)n1-c1cc(Cl)ccc1-2
Response line: Criterion not met

Prompt line: For this molecule, is measured melting point 200 °C or higher? CCOC(=O)c1ncnc2c1Cc1cnc(C3CC3)n1-c1cc(C)ccc1-2
Response line: Criterion met

Prompt line: For this molecule, is measured melting point 200 °C or higher? CCOC(=O)c1ncnc2c1Cc1cnc(C(C)(C)C)n1-c1cc(F)ccc1-2
Response line: Criterion met

Prompt line: For this molecule, is measured melting point 200 °C or higher? CCOC(=O)c1ncnc2c1Cc1cnc(C)n1-c1cc(C)c(C)cc1-2
Response line: Criterion met

Prompt line: For this molecule, is measured melting point 200 °C or higher? CCOC(=O)c1ncnc2c1Cc1cnc(Cc3ccc(OC)cc3)n1-c1cc(Br)ccc1-2
Response line: Criterion not met

Others:
Prompt line: For this molecule, is measured melting point 200 °C or higher? CCOC(=O)c1ncnc2c1Cc1cnc(Cc3ccc(OC)cc3)n1-c1cc(C)c(C)cc1-2
Response line: Criterion not met

Prompt line: For this molecule, is measured melting point 200 °C or higher? CCCc1ncc2n1-c1cc(C)c(C)cc1-c1ncnc(C(=O)OCC)c1C2
Response line: Criterion met

Prompt line: For this molecule, is measured melting point 200 °C or higher? CCOC(=O)c1ncnc2c1Cc1cnc(C(C)C)n1-c1cc(Cl)ccc1-2
Response line: Criterion not met

====

Catalogue of melting point values
The response must be a number in °C with no trailing unit.

These recorded examples may help you get a feel for the data.
Query CCOC(=O)c1ncnc2c1Cc1cnc(C)n1-c1cc(C)ccc1-2 yields melting point of 200

Query CCOC(=O)c1ncnc2c1Cc1cnc(C3CC3)n1-c1cc(Cl)ccc1-2 yields melting point of 230

Others:
Query CCOC(=O)c1ncnc2c1Cc1cnc(Cc3ccc(OC)cc3)n1-c1cc(F)ccc1-2 yields melting point of 185

====

Catalogue of melting point values
The response must be a number in °C with no trailing unit.

Query CCOC(=O)c1ncnc2c1Cc1cnc(Cc3ccc(OC)cc3)n1-c1cc(Cl)ccc1-2 yields melting point of 192

Query CCOC(=O)c1ncnc2c1Cc1cnc(C(C)(C)C)n1-c1cc(Cl)ccc1-2 yields melting point of 180

Query CCOC(=O)c1ncnc2c1Cc1cnc(Cc3c[nH]c4ccccc34)n1-c1cc(C)c(C)cc1-2 yields melting point of 135

Others:
Query CCOC(=O)c1ncnc2c1Cc1cnc(C3CC3)n1-c1cc(Br)ccc1-2 yields melting point of 230

The reported measurements were obtained from patent US6686352B2.
